# credit: paper PMC10464304

# test.target: T1, GST-hUHRF1-TTD (126-280) D142N (human, UniProt Q96T88 126-280, D142N)
# T1 construct: Tandem Tudor domain (TTD) of human UHRF1, UniProt Q96T88, residues 126-280; source: E. coli, purified (Glutathione Agarose 4B); not shown: GST, N-terminal, kept
# T1 sequence (looked up): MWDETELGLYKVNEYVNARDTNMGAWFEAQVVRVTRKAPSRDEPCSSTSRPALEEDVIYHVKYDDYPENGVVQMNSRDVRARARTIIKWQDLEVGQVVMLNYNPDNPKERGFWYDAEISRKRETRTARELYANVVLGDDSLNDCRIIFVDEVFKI
# method.description: fluorescence polarisation; fluorescence anisotropy titration; 100 nM FITC-labeled peptide in the cuvette, protein added stepwise; 23°C; 100 mM KCl, 20 mM HEPES pH 7.5, 10% v/v glycerol
# experimental.context: both partners purified
No end group written: not given here. Me3 = trimethyl (trimethyl-lysine)
attribute.measured: Kd (nM)
Numbers only; they are read as nM.

Query: // lookup Kd for ARTK(Me)QTARK(Me3)STGGKAPRKQ (peptide, UniProt P68431 2-20, looked up, also: FITC-labeled (position not given here), histone H3 N-terminal tail, residues 1-19; also called H3K4me1-K9me3; H3 K4me1-K9me3) [FITC-labeled H3(1-19) peptide with K4me1 and K9me3]
Response: 2
